- ASSAY_TEXT: absolute recovery over mixed-bed multilayer solid-phase extraction; higher = better recovery
- CONDITION_LABEL: nanopure water; enrichment method: SPE
Below, each entry is listed with its recorded absolute recovery.
READOUT: absolute recovery (%)

MOLECULE	OBSERVED_MEASUREMENT
Cn1cc(C(=O)Nc2ccc(F)cc2-c2ccc(Cl)c(Cl)c2)c(C(F)F)n1	95.4
O=C(OC1CC2CCC(C1)[N+]21CCCC1)C(O)(c1ccccc1)c1ccccc1 (stereo not given)	85.5
Cc1ccc2[nH]nnc2c1	95.7
CCNc1nc(N)nc(Cl)n1	93.4
CC(C)(C)c1n[nH]c(=O)n(N)c1=O	94.5
Cc1cc(N(C2OC(C(=O)[O-])C(O)C(O)C2O)S(=O)(=O)c2ccc(N)cc2)no1 (stereo not given) [Sulfamethoxazole-N1-Glucuronide]	86.9
C[NH2+]CCCC(C#N)(c1ccc(OC)c(OC)c1)C(C)C (stereo not given)	89.5
CC(C)(C)[NH2+]CC(O)COc1nsnc1N1CCOCC1 (stereo not given)	82.7
CC(C)Nc1nc(O)nc(NC(C)C)n1 [Propazine-2-hydroxy I]	103
COc1cc2[nH+]c(N(C)CCCNC(=O)C3CCCO3)nc(N)c2cc1OC (stereo not given)	93.2
COc1cc(C)c(C(=O)c2c(OC)ccc(Br)c2C)c(OC)c1OC	103
C[NH+]1C2CCC1CC(OC(=O)C(CO)c1ccccc1)C2 (stereo not given)	94.2
Cc1cncc(C(=O)[O-])c1	109
O=C1C=CC(=C2NC=CNC2=O)C=C1	76.8
CCNc1nc(NC(C)C)nc(OC)n1	92.8
CCOC(=O)C1=CC(OC(CC)CC)C(NC(C)=O)C([NH3+])C1 (stereo not given)	69.9
CN(C)C(=O)NC1CCCCCCC1	91.4
Fc1ccc(C2(Cn3cncn3)OC2c2ccccc2Cl)cc1 (stereo not given)	100
Nc1[nH]c(=O)ncc1F	4.4
CC(Oc1ccc(Cl)cc1Cl)C(=O)[O-] (stereo not given)	97.8
